system_under_test: Alpha-2C adrenergic receptor (Homo sapiens) (UniProt P18825)
Sequence (P18825 whole entry, looked up): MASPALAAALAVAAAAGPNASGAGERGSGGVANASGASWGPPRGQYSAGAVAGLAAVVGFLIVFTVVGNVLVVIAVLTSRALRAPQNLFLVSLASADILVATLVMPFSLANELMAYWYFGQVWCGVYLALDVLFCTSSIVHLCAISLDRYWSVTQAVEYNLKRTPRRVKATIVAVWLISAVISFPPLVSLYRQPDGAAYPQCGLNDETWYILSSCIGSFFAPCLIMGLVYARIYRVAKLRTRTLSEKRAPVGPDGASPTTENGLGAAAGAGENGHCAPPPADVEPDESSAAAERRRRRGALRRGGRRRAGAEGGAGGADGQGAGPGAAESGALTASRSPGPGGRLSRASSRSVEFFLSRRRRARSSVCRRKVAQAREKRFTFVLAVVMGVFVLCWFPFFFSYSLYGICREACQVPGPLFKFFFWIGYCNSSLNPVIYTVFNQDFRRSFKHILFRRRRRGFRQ
test_summary: compounds altering alpha2C-coupled GIRK flux – cell-based, HEK293 alpha2C/GIRK1/2, thallium flux, primary screen (AID 624);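 also: slope of fluorescence ratio to pre-addition baseline per second over 15 to 24 s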
details: thallium flux BTC fluorescence, at 10 µM, actives lie on both sides
Output fulfilled for records whose slope is lower than 0.005, not fulfilled for records at or above 0.005.

As a guide, the following entries are already answered.
molecule	assigned_category
C[N+]1(C)[C@@H]2CC(OC(=O)[C@H](CO)c3ccccc3)C[C@H]1[C@@H]1O[C@@H]12 (stereo partly specified)	not fulfilled
c1ccc2c3c([nH]c2c1)CNCC3	fulfilled
COc1ccc(Cn2c(O)c(C=NCCCn3ccnc3)c(=O)[nH]c2=O)cc1	fulfilled
CC(C)N(CCC(C(N)=O)(c1ccccc1)c1ccccn1)C(C)C (stereo unspecified)	fulfilled
C[C@]12CCC(=O)C=C1CC[C@@H]1[C@@H]2CC[C@]2(C)C(=O)CC[C@@H]12	fulfilled

Confirm or reject: slope of COc1ccc(CC2C(=O)NC(=O)NC2=O)c(OC)c1 lies strictly below 0.005 not fulfilled

Confirm or reject: slope of C#C[C@]1(O)CC[C@H]2[C@@H]3CCC4=CC(=O)CC[C@]4(C)[C@H]3CC[C@@]21C lies strictly below 0.005 fulfilled

Confirm or reject: slope of COP(=O)(OC)C(O)C(Cl)(Cl)Cl (stereo unspecified) lies strictly below 0.005 fulfilled
